quantityName: melting point

Give the reported value of melting point for this record: O=C(CCl)NNC1=Nc2ccc(Cl)cc2N(c2ccccc2)C(=O)C1 210 to 215 °C

###

Known melting point of a selection of compounds

Please review the entries below; each comes with its answer.
CCOc1cc(N(CC)CC)ccc1C=O
58 to 59 °C
COc1ccc2c(C(=O)O)cc3cc(OC)c(OC)cc3c2c1
241 to 243 °C
COc1ccc(CCCCCCN)cc1
63 to 65 °C
COC(=O)c1cc(NS(C)(=O)=O)ccc1F
135 to 137 °C
CC(/C=C/c1c(C)sc(C)c1C)=C(F)\C=C\C(C)=C\C=O
129 to 131 °C

Now let's try a different one.
Give the reported value of melting point for this record: N#Cc1cc2c(c(C(=O)O)c1)OC(c1ccccc1)(c1ccccc1)O2 221 °C

All values here come from a melting point compilation (Tetko et al.; mined from patent text by program, amines drawn as free bases though some values may be those of a salt).
